molecular target: human XIAP_BIR3 domain purified protein (Homo sapiens, UniProt P98170); construct: purchased R & D; assay: XIAP binding inhibitory activity, HTRF method with b-Smac ligand; details: test compound 3 μM; first symbol of the cell; read-out: XIAP binding inhibition rate when the concentration of the test compound is 3 μM
Sequence (P98170 252-356 limits assumed): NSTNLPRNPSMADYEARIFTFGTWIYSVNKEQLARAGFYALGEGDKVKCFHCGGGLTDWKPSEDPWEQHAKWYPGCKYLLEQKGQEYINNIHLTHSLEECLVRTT
Counter-ions that a name gives are not always drawn.
In this section, each of the compounds is paired with its reported inhibition at 3 µM.

- compound: "CN[C@@H](C)C(=O)N[C@H](C(=O)N1CCN(C(=O)c2c(C(=O)NCCOCCOCCOCC(=O)N3CCN(c4cc(Nc5ncc(C(=O)Nc6c(C)cccc6Cl)s5)nc(C)n4)CC3)c3cc(F)ccc3n2C)CC1)C1CCCCC1"
  inhibition at 3 µM: "50 to 75%"
- compound: "CN[C@@H](C)C(=O)N[C@H](C(=O)N1CCN(C(=O)c2cc3ccnn3cc2C)CC1)C1CCCCC1"
  inhibition at 3 µM: "25 to 50%"
- compound: "CN[C@@H](C)C(=O)N[C@H](C(=O)N1CCN(C(=O)c2c(C(=O)N3CCC[C@H]3COC)c3ccc(OC)cc3n2C)CC1)C1CCCCC1 [Example 29, Hydrochloride]"
  inhibition at 3 µM: "50 to 75%"
- compound: "CN[C@@H](C)C(=O)N[C@H](C(=O)N1CCN(C(=O)c2c(C(=O)NCCOCCOCC(=O)O)c3ccc(OC)cc3n2C)CC1)C1CCCCC1 [Example 37, Hydrochloride]"
  inhibition at 3 µM: "50 to 75%"
- compound: "CN[C@@H](C)C(=O)N[C@H](C(=O)N1CCN(C(=O)c2c(C(=O)N3CC(OC)C3)c3ccc(OC)cc3n2C)CC1)C1CCCCC1 [Example 31, Hydrochloride]"
  inhibition at 3 µM: "50 to 75%"
- compound: "CN[C@@H](C)C(=O)N[C@H](C(=O)N1CCN(C(=O)c2ccn3nccc3c2F)CC1)C1CCCCC1"
  inhibition at 3 µM: "25 to 50%"
